Just for reference, patent US20230271968A1 is where these values come from.

molecular target: ATR kinase (Homo sapiens (Human)); test: Assay of ATR kinase activity (time-resolved fluorescence, phosphorylation of p53-derived protein); assay type: biochemical; conditions: ATR/ATRIP, p53 substrate, 30 minutes at room temperature
Sequence (Q13535 whole entry, looked up): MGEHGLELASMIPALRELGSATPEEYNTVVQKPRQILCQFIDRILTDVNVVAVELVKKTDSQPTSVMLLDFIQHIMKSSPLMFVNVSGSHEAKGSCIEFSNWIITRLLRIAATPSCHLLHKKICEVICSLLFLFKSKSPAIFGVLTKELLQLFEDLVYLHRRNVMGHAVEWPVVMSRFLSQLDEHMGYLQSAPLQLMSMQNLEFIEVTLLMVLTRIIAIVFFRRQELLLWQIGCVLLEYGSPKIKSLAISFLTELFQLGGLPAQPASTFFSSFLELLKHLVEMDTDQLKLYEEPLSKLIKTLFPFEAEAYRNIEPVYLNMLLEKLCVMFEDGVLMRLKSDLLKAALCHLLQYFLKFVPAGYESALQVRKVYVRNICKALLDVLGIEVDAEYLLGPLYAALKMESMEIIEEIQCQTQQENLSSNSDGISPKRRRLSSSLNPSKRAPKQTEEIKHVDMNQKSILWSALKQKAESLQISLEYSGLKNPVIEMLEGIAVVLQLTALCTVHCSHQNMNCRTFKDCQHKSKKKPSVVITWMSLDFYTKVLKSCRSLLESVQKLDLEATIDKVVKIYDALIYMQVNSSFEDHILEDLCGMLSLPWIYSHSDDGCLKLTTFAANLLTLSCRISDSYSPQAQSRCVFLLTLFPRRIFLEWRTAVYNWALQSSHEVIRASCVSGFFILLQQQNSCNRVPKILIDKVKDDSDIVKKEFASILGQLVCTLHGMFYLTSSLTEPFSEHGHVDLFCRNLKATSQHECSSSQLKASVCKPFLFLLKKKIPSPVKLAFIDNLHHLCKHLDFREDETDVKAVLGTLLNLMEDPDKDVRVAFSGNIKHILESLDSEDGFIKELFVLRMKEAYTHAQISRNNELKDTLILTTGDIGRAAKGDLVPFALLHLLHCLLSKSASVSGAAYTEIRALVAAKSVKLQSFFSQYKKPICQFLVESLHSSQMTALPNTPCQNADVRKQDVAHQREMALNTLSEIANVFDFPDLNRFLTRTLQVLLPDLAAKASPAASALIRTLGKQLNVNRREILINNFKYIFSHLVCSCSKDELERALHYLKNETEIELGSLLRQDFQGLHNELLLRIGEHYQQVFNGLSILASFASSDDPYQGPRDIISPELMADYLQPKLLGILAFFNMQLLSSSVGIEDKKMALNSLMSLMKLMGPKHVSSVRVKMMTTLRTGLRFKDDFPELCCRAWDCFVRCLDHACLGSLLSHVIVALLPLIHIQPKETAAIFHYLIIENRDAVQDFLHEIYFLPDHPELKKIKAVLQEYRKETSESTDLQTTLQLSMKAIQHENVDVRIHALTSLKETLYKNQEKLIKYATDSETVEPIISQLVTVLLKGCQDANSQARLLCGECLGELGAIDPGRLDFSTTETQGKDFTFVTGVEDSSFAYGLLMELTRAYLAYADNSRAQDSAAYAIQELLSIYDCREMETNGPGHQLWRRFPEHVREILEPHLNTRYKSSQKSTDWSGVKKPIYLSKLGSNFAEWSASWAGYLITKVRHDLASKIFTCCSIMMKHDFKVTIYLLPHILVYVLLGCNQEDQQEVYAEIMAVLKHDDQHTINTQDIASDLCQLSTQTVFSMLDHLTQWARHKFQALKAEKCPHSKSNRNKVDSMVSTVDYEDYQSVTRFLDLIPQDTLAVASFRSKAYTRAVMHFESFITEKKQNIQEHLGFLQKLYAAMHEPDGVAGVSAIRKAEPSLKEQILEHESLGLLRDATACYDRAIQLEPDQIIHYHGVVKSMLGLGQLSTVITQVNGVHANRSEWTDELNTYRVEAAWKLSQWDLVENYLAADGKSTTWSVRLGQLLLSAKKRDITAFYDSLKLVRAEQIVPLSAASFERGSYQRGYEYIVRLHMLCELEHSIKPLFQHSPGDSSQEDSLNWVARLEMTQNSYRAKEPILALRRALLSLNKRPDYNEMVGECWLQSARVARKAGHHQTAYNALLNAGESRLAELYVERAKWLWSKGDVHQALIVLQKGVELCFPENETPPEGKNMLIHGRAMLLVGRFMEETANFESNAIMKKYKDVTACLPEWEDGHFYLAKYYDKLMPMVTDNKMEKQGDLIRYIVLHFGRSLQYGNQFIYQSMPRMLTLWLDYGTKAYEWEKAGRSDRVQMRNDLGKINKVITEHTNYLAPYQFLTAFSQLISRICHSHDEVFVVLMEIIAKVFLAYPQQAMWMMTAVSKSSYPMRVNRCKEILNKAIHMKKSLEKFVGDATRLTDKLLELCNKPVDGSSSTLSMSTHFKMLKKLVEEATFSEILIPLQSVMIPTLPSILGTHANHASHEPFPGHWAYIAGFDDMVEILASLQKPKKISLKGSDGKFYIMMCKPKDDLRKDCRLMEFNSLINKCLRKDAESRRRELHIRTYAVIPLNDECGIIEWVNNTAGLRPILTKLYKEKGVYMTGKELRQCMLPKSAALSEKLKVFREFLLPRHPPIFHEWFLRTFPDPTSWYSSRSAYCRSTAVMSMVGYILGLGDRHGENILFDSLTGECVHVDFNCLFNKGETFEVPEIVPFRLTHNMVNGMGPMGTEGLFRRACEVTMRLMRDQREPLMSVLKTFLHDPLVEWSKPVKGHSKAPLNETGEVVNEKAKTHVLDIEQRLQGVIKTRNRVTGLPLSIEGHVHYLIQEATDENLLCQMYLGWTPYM
Sequence (Q8WXE1 whole entry partner, looked up): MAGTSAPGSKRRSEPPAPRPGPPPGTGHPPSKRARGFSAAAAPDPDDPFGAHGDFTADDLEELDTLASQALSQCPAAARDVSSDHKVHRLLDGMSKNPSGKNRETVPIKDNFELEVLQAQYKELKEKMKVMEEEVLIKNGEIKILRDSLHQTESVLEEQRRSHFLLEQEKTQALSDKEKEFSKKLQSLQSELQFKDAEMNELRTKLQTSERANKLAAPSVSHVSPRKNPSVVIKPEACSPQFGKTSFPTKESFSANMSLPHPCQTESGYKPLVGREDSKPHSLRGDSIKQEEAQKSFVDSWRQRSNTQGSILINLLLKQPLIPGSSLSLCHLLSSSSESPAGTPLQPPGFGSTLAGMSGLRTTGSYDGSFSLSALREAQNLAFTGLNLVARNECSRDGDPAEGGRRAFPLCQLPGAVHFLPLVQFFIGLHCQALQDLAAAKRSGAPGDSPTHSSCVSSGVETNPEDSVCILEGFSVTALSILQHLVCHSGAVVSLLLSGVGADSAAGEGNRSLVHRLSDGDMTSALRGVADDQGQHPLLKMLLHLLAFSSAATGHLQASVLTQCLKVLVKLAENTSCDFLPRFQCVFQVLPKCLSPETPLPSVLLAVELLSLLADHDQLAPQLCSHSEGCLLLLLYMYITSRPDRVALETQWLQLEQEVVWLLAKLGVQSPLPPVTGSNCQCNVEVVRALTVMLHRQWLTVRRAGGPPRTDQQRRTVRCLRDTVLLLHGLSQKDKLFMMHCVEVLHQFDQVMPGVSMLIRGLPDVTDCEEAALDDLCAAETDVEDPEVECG
Readout kind: IC50 (nM)

> print(dat)
                                     smiles  unit.annotation  recorded.measurement
1  Cc1nn(-c2ccnnc2)c(C)c1-c1cc(N2CCOC[C@H]2C)nc2c(-c3ccn[nH]3)cnn12               nM                     2
2  Cc1nn(C2CCNCC2)c(C)c1-c1cc(N2CCOC[C@H]2C)nc2c(-c3ccn[nH]3)cnn12               nM                   184
3  Cc1nnn(C)c1-c1cc(N2CCOC[C@H]2C)nc2c(-c3ccn[nH]3)cnn12               nM                    84
4  Cc1cncc(-n2nc(C)c(-c3cc(N4CCOC[C@H]4C)nc4c(-c5ccn[nH]5)cnn34)c2C)c1               nM                     4

====

Below, each entry is listed alongside its reported IC50.
molecular target: ATR kinase (Homo sapiens (Human)); assay: Assay of ATR kinase activity (time-resolved fluorescence, phosphorylation of p53-derived protein); format: biochemical; conditions: ATR/ATRIP, p53 substrate, 30 minutes at room temperature
Readout kind: IC50

> print(dat)
                                    molecule  recorded.measurement
 1  Cc1nn(C(=O)N2CCNCC2)c(C)c1-c1cc(N2CCOC[C@H]2C)nc2c(-c3ccn[nH]3)cnn12 [Compound A15]                 13 nM
 2  Cc1nn(-c2cncc(Cl)c2)c(C)c1-c1cc(N2CCOC[C@H]2C)nc2c(-c3ccn[nH]3)cnn12 [Compound A12]                  2 nM
 3  Cc1noc(C)c1-c1cc(N2CCOC[C@H]2C)nc2c(-c3ccn[nH]3)cnn12 [Compound A4]                 74 nM
 4  Cc1c(-c2cc(N3CCOC[C@H]3C)nc3c(-c4ccn[nH]4)cnn23)c(C(F)(F)F)nn1C1CCNCC1 [Compound A2]                 33 nM
 5  Cc1nn(-c2cncc(C(F)F)c2)c(C)c1-c1cc(N2CCOC[C@H]2C)nc2c(-c3ccn[nH]3)cnn12 [Compound A10]                  3 nM
 6  Cc1nn(C2CCNCC2)c(C(F)(F)F)c1-c1cc(N2CCOC[C@H]2C)nc2c(-c3ccn[nH]3)cnn12 [Compound A1]                 70 nM
 7  Cc1nn(-c2ccncc2)c(C)c1-c1cc(N2CCOC[C@H]2C)nc2c(-c3ccn[nH]3)cnn12 [Compound A24]                  2 nM
 8  C[C@@H]1COCCN1c1cc(C2(O)CCOCC2)n2ncc(-c3ccn[nH]3)c2n1 [Compound A20]                188 nM
 9  Cc1nn(-c2ccc(=O)[nH]c2)c(C)c1-c1cc(N2CCOC[C@H]2C)nc2c(-c3ccn[nH]3)cnn12 [Compound A14]                  3 nM
10  Cc1nn(C2CCNCC2)c(C(F)(F)F)c1-c1cc(N2CCOC[C@H]2C)nc2c(-c3ccccn3)cnn12 [Compound A6]                 17 nM
11  Cc1nn(C2CCNC[C@H]2F)c(C)c1-c1cc(N2CCOC[C@H]2C)nc2c(-c3ccn[nH]3)cnn12 (stereo partly drawn) [Compound A16-II]                 31 nM
12  Cc1nn(-c2cncc(O)c2)c(C)c1-c1cc(N2CCOC[C@H]2C)nc2c(-c3ccn[nH]3)cnn12 [Compound A19]                  4 nM
13  Cc1nn(CCO)c(C)c1-c1cc(N2CCOC[C@H]2C)nc2c(-c3ccn[nH]3)cnn12 [Compound A18]                  8 nM
14  Cc1nn(-c2cccnc2)c(C)c1-c1cc(N2CCOC[C@H]2C)nc2c(-c3ccn[nH]3)cnn12 [Compound A22]                  2 nM
15  Cc1nn(C2CCNC[C@@H]2F)c(C)c1-c1cc(N2CCOC[C@H]2C)nc2c(-c3ccn[nH]3)cnn12 (stereo partly drawn) [Compound A16-I]                 33 nM
